Test system: LNCaP
Assay: Antiproliferative activity against androgen-sensitive human LNCaP cells assessed as inhibition of cell growth incubated for 48 hrs by MTT assay
Format: functional, cell-based
MEASUREMENT_LABEL: pIC50
Reminder that pIC50 means the negative base-10 logarithm of the concentration expressed in mol/L.

What reported pIC50 corresponds to C[C@]12CC[C@H]3[C@@H]([C@H](/C=C/C=C/C=C/[C@@H]4CC5=CC(=O)CC[C@]5(C)[C@H]5CC[C@]6(C)[C@@H](O)CC[C@H]6[C@H]45)CC4=CC(=O)CC[C@@]43C)[C@@H]1CC[C@@H]2O on LNCaP?
4.92

What reported pIC50 corresponds to C[C@]12CC[C@H]3[C@@H]([C@H](/C=C/C=C/C=C/[C@@H]4CC5=CC(=O)CC[C@]5(C)[C@H]5CC[C@]6(C)[C@H](O)CC[C@H]6[C@H]45)CC4=CC(=O)CC[C@@]43C)[C@@H]1CC[C@H]2O on LNCaP?
4.43

What reported pIC50 corresponds to C=C/C=C/[C@@H]1CC2=CC(=O)CC[C@]2(C)[C@H]2CC[C@]3(C)C(=O)CC[C@H]3[C@H]12 on LNCaP?
4.47

What reported pIC50 corresponds to C=C/C=C/[C@@H]1CC2=CC(=O)CC[C@]2(C)[C@H]2CC[C@]3(C)[C@H](O)CC[C@H]3[C@H]12 on LNCaP?
4.78

What reported pIC50 corresponds to C=C/C=C/[C@@H]1CC2=CC(=O)CC[C@]2(C)[C@H]2CC[C@]3(C)[C@@H](O)CC[C@H]3[C@H]12 on LNCaP?
4.54

What reported pIC50 corresponds to CC(=O)O[C@]1(C(C)=O)CC[C@H]2[C@@H]3C=C(Cl)C4=CC(=O)[C@@H]5C[C@@H]5[C@]4(C)[C@H]3CC[C@@]21C [CYPROTERONE ACETATE] on LNCaP?
4.22

What reported pIC50 corresponds to C[C@]12CCC(=O)C=C1C[C@@H](/C=C/C=C/C=C/[C@@H]1CC3=CC(=O)CC[C@]3(C)[C@H]3CC[C@]4(C)C(=O)CC[C@H]4[C@H]13)[C@@H]1[C@@H]2CC[C@]2(C)C(=O)CC[C@@H]12 on LNCaP?
4.14

What reported pIC50 corresponds to C[C@]12CC[C@H]3[C@@H](C([C@H]4C=CC[C@H]5C(=O)OC(=O)[C@@H]45)CC4=CC(=O)CC[C@@]43C)[C@@H]1CC[C@@H]2O (stereo partly drawn) on LNCaP?
3.88

====

Consider the following compounds; for each one, report its pKd.
Reminder that pKd means the negative base-10 logarithm of the concentration expressed in mol/L.

What reported pKd corresponds to C[C@]12CC[C@H]3[C@@H]([C@H](/C=C/C=C/C=C/[C@@H]4CC5=CC(=O)CC[C@]5(C)[C@H]5CC[C@]6(C)[C@H](O)CC[C@H]6[C@H]45)CC4=CC(=O)CC[C@@]43C)[C@@H]1CC[C@H]2O on Cytochrome P450 3A4 (Homo sapiens, UniProt P08684)?
5.80

What reported pKd corresponds to C[C@]12CC[C@H]3[C@@H]([C@H](C/C=C/C[C@@H]4CC5=CC(=O)CC[C@]5(C)[C@H]5CC[C@]6(C)[C@@H](O)CC[C@H]6[C@H]45)CC4=CC(=O)CC[C@@]43C)[C@@H]1CC[C@@H]2O on Cytochrome P450 3A4 (Homo sapiens, UniProt P08684)?
5.15

What reported pKd corresponds to C[C@]12CC[C@H]3[C@@H]([C@H](C/C=C\C[C@@H]4CC5=CC(=O)CC[C@]5(C)[C@H]5CC[C@]6(C)[C@@H](O)CC[C@H]6[C@H]45)CC4=CC(=O)CC[C@@]43C)[C@@H]1CC[C@@H]2O on Cytochrome P450 3A4 (Homo sapiens, UniProt P08684)?
6.43

What reported pKd corresponds to C[C@]12CCC(=O)C=C1C[C@@H](/C=C/C=C/C=C/[C@@H]1CC3=CC(=O)CC[C@]3(C)[C@H]3CC[C@]4(C)C(=O)CC[C@H]4[C@H]13)[C@@H]1[C@@H]2CC[C@]2(C)C(=O)CC[C@@H]12 on Cytochrome P450 3A4 (Homo sapiens, UniProt P08684)?
5.85

What reported pKd corresponds to C[C@]12CC[C@H]3[C@@H]([C@H](/C=C/C=C/C=C/[C@@H]4CC5=CC(=O)CC[C@]5(C)[C@H]5CC[C@]6(C)[C@@H](O)CC[C@H]6[C@H]45)CC4=CC(=O)CC[C@@]43C)[C@@H]1CC[C@@H]2O on Cytochrome P450 3A4 (Homo sapiens, UniProt P08684)?
5.26

====

Biological target: Cytochrome P450 3A4 (Homo sapiens, UniProt P08684)
Sequence (P08684 whole entry): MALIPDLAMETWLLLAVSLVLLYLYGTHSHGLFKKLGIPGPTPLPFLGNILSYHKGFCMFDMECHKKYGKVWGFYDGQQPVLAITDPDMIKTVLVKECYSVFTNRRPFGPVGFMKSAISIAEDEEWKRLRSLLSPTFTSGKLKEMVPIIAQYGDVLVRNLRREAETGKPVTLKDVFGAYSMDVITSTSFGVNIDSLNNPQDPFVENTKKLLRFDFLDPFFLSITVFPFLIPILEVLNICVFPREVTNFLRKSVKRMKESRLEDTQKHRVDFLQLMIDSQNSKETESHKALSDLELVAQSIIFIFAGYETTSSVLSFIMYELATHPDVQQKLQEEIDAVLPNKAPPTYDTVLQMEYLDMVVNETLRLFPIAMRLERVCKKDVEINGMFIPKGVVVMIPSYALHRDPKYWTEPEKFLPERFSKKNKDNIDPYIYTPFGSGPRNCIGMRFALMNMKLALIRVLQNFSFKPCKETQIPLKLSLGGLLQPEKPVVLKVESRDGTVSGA
Test: Inhibition of recombinant human CYP3A4 using BFC as substrate
MEASUREMENT_LABEL: IC50 (µM)
Kindly answer with a numeric value in µM, unit omitted.

Which measured IC50 value corresponds to C[C@]12CCC(=O)C=C1C[C@@H](/C=C/C=C/C=C/[C@@H]1CC3=CC(=O)CC[C@]3(C)[C@H]3CC[C@]4(C)C(=O)CC[C@H]4[C@H]13)[C@@H]1[C@@H]2CC[C@]2(C)C(=O)CC[C@@H]12 ?
3.6

Which measured IC50 value corresponds to C[C@]12CC[C@H]3[C@@H]([C@H](C/C=C/C[C@@H]4CC5=CC(=O)CC[C@]5(C)[C@H]5CC[C@]6(C)[C@@H](O)CC[C@H]6[C@H]45)CC4=CC(=O)CC[C@@]43C)[C@@H]1CC[C@@H]2O ?
6.5

Which measured IC50 value corresponds to C[C@]12CC[C@H]3[C@@H]([C@H](/C=C/C=C/C=C/[C@@H]4CC5=CC(=O)CC[C@]5(C)[C@H]5CC[C@]6(C)[C@@H](O)CC[C@H]6[C@H]45)CC4=CC(=O)CC[C@@]43C)[C@@H]1CC[C@@H]2O ?
1.2

Which measured IC50 value corresponds to C[C@]12CC[C@H]3[C@@H]([C@H](/C=C/C=C/C=C/[C@@H]4CC5=CC(=O)CC[C@]5(C)[C@H]5CC[C@]6(C)[C@H](O)CC[C@H]6[C@H]45)CC4=CC(=O)CC[C@@]43C)[C@@H]1CC[C@H]2O ?
22

Which measured IC50 value corresponds to C[C@]12CC[C@H]3[C@@H]([C@H](C/C=C\C[C@@H]4CC5=CC(=O)CC[C@]5(C)[C@H]5CC[C@]6(C)[C@@H](O)CC[C@H]6[C@H]45)CC4=CC(=O)CC[C@@]43C)[C@@H]1CC[C@@H]2O ?
0.8
